- CONDITION NOTES: buffer; pH 7.4; 200.0 µM
READOUT KIND: solubility kinetic (µg/mL)
One number for each entry, in µg/mL.

Take a look at these entries with their results.
COc1ccc(CCNC(=O)c2cccs2)cc1 ... 38.7
CCOC(=O)C1CCCN(C(=O)c2cc3ccccc3oc2=O)C1 (configuration not stated) ... 38.8

Prompt line: State the recorded solubility kinetic for this entry: `CC(C)N(Cc1cc2ccccc2[nH]c1=O)C(=O)c1cccc([N+](=O)[O-])c1`
Response line: 3.4

###

- CONDITION NOTES: buffer; pH 7.4; 200.0 µM
READOUT KIND: solubility kinetic

Take a look at these entries with their results.
COc1ccc(C2(O)C(=O)Nc3ccccc32)cc1 (centres undefined) ... > 38.3 µg/mL
COc1cc2ccccc2cc1C(=O)NCc1ccncc1 ... > 43.9 µg/mL
Cc1ccc(S(=O)(=O)N2CCC(=O)CC2)cc1 ... > 38 µg/mL
O=C(CC(=O)Nc1cccnc1)Nc1cccnc1 ... > 38.4 µg/mL
Cc1ccc(S(=O)(=O)N2CCc3ccccc3C2CC(=O)O)cc1 (centres undefined) ... > 51.8 µg/mL

Consider the following items and state reported solubility kinetic for each.
1. CC(=O)c1c(C)[nH]c(C(=O)NNC(=O)c2ccc(C)cc2)c1C
2. O=C(Nc1ccccc1)OCCCCCOC(=O)Nc1ccccc1
3. CCCOc1ccc(N2C(=O)CC(NCC(=O)OCC)C2=O)cc1 (centres undefined)
4. Cl.N=C(N=C(N)N)N1CCOCC1

Response line:
["> 47 µg/mL", "< 0.4 µg/mL", "> 50.2 µg/mL", "> 31.1 µg/mL"]

Consider the following items and state reported solubility kinetic for each.
1. COc1ccc(N(Cc2cc(=O)[nH]c3ccccc23)C(C)=O)cc1
2. O=C(CCN1C(=O)C2CC=CCC2C1=O)Nc1nccs1 (centres undefined)
3. OCC1(Cc2ccccc2)CCN(Cc2ccccn2)CC1
4. Cn1c(=O)c2c([nH]c(=O)n2C)n(Cc2ccccc2)c1=O
5. O=C(O)c1nn(-c2ccccc2C(F)(F)F)cc1O
6. NC(=O)CCS(=O)(=O)c1ccc(Cl)cc1

Response line:
1. > 48.4 µg/mL
2. > 45.8 µg/mL
3. > 44.5 µg/mL
4. > 42.9 µg/mL
5. > 40.8 µg/mL
6. > 37.2 µg/mL

###

Provide the recorded solubility kinetic for the entries that follow.
- CONDITION NOTES: buffer; pH 7.4; 200.0 µM

Take a look at these entries with their results.
CC(=O)N1CCN(Cc2nc3cc(Cl)ccc3c(=O)[nH]2)CC1 ... > 0.0481 mg/mL
O=C(CCS(=O)(=O)c1ccccc1)NC1CCCC1 ... > 0.0422 mg/mL
Cc1onc(-c2ccccc2)c1C(=O)NCCSCc1ccco1 ... > 0.0514 mg/mL
COc1ccccc1OCCC(=O)Nc1ccc2c(c1)OCO2 ... > 0.0473 mg/mL
COc1ccccc1CNC(=O)CN1C(=O)NC2(CCC(C)CC2)C1=O (stereo unspecified) ... > 0.0539 mg/mL

API: the following record is the query input.
Prompt line: State the recorded solubility kinetic for this entry: CC1CN(C(=O)CCNC(=O)c2ccccc2Cl)CC(C)O1 (stereo unspecified)
Response line: > 0.0487 mg/mL

###

Provide the recorded solubility kinetic for the entries that follow.
- CONDITION NOTES: buffer; pH 7.4; 200.0 µM

Take a look at these entries with their results.
COc1cccc(C2=NOC(C(=O)NCc3cccnc3)C2)c1 (stereo not drawn) ... > 46.7 µg/mL
Cc1ccc(Nc2ccc(C(=O)O)cc2[N+](=O)[O-])cc1 ... > 40.8 µg/mL
CCOc1ccc(Cl)cc1S(=O)(=O)NCc1ccccn1 ... > 49 µg/mL

Consider the following items and state reported solubility kinetic for each.
1. CC(NC(=O)COc1cccnc1[N+](=O)[O-])c1ccc(F)cc1 (stereo not drawn)
2. Cc1ccnc(NC(=O)CCS(=O)(=O)c2ccccc2)c1

Response line:
1. > 47.9 µg/mL
2. > 45.7 µg/mL

Consider the following items and state reported solubility kinetic for each.
1. CCCc1cnc(N2CCN(S(C)(=O)=O)CC2)nc1
2. Cc1ccn2c(=O)cc(C)nc2c1
3. O=C(COC(=O)c1cc(S(=O)(=O)N2CCOCC2)ccc1F)NCCc1ccc(F)cc1

Response line:
["> 42.7 µg/mL", "> 26.1 µg/mL", "> 70.3 µg/mL"]

###

Provide the recorded solubility kinetic for the entries that follow.
- CONDITION NOTES: buffer; pH 7.4; 200.0 µM

Take a look at these entries with their results.
CCc1nc(N2CCCCC2C(=O)O)c2oc3ccccc3c2n1 (stereo not drawn) ... > 48.8 µg/mL
COc1ccccc1CNCCc1ccc(F)cc1.O=C(O)C(=O)O ... > 52.4 µg/mL

API: the following record is the query input.
Prompt line: State the recorded solubility kinetic for this entry: `Cc1nc2ccccc2n1C1CCN(C(=O)Nc2ccccc2)CC1`
Response line: > 50.2 µg/mL

###

Provide the recorded solubility kinetic for the entries that follow.
- CONDITION NOTES: buffer; pH 7.4; 200.0 µM

Cn1nccc1C(=O)N1CCOCC1 ... > 29.3 µg/mL

Consider the following items and state reported solubility kinetic for each.
1. Cc1ccc(C(C[N+](=O)[O-])c2c(N)n(C)c(=O)n(C)c2=O)cc1 (centres undefined)
2. COc1ccc(-c2c(=O)n(OC)c3ccccc3[n+]2[O-])cc1OC
3. O=C(COC(=O)c1cncc(Br)c1)NC1CCCC1

Response line:
1. > 47.7 µg/mL
2. > 49.2 µg/mL
3. > 49.1 µg/mL

###

- CONDITION NOTES: buffer; pH 7.4; 200.0 µM
Provide the recorded log10 of solubility kinetic for the entries that follow.
Answers are given as log10 of solubility kinetic in µg/mL.

Take a look at these entries with their results.
CCCCCC(=O)O/N=C(\C)c1ccn(S(=O)(=O)c2ccccc2)c1 ... 0.11
CN(Cc1cccc(F)c1)C(=O)c1ccc(S(=O)(=O)N2CCCCCC2)cc1 ... 1.40

Consider the following items and state reported log10 of solubility kinetic for each.
1. COc1ccc(NC(C)=O)cc1NC(=O)c1ccc(Cl)cc1
2. CC(=O)Nc1nc(-c2ccc3c(c2)CC(C)N3C(=O)C2CC2)c(C)s1 (configuration not stated)
3. CC(C)N(Cc1ccccc1)C(=S)NCc1ccccc1

Response line:
[1.24, 1.54, 1.29]

Consider the following items and state reported log10 of solubility kinetic for each.
1. S=C(NCCCc1ccccc1)Nc1ccccc1
2. O=C(Nc1cccc([N+](=O)[O-])c1)C1C2CCCCC21 (configuration not stated)
3. Cc1ccsc1-c1nc(CN2CCCC2c2ccc(F)cc2)c(C)o1 (configuration not stated)
4. CC(=O)N/C(=N/c1nc(C)cc(C)n1)Nc1ccc(C)cc1C

Response line:
1. 1.50
2. -0.30
3. 1.17
4. 0.53

Consider the following items and state reported log10 of solubility kinetic for each.
1. N#Cc1ccc(COC(=O)c2ccc3c(c2)OCO3)cc1
2. Nc1cc(S(=O)(=O)Nc2ccccc2Cl)ccc1N1CCCCC1

Response line:
0.36
1.12

###

Provide the recorded solubility kinetic for the entries that follow.
- CONDITION NOTES: buffer; pH 7.4; 200.0 µM

CN(c1cccc(NC(=O)c2ccc(C(C)(C)C)cc2)c1)S(C)(=O)=O ... < 0.4 µg/mL
CC(=O)N1CCN(C(=O)c2ccc(Oc3ccccc3)cc2)CC1 ... 46.6 µg/mL

Consider the following items and state reported solubility kinetic for each.
1. Cc1[nH]n(-c2ccccc2)c(=O)c1/C=N/NC(=O)c1cccc(F)c1
2. CN(C)CCn1c(N)nc2ccccc21
3. O=C(Nc1nnc2n1CCS2)c1ccc(Br)o1
4. COc1ccc(S(=O)(=O)NCc2ccccn2)cc1Br
5. CC(C)C1Oc2ccccc2N(CC(=O)NC2CCCCC2)C1=O (stereo not drawn)
6. COc1ccc(NC(=O)CCn2ccnc2)c(OC)c1

Response line:
> 50.8 µg/mL
> 30.6 µg/mL
> 47.3 µg/mL
> 53.6 µg/mL
> 49.6 µg/mL
41.1 µg/mL

###

- CONDITION NOTES: buffer; pH 7.4; 200.0 µM
READOUT KIND: solubility kinetic (µg/mL)
Answers are plain numbers, in µg/mL.

Take a look at these entries with their results.
COc1cccc(C(=O)N2CCC(C(=O)NCc3ccco3)CC2)c1 ... 50.6
Cc1ccc(OCCCCCN2CCOCC2)cc1 ... 32.3

Consider the following items and state reported solubility kinetic for each.
1. O=C(COc1ccccc1F)NC12CC3CC(CC(C3)C1)C2
2. COc1ccc([N+](=O)[O-])cc1NC(=S)NC(C)=O
3. Cc1cccc2sc(NC(=O)CCNC(=O)c3ccco3)nc12
4. Clc1nssc1=Nc1ccc(Br)cc1
5. Cc1nonc1NC(=O)CSc1nc2ccccc2o1
6. Cc1ccc(S(=O)(=O)N2CCCCC2)cc1NC(=O)Cc1cccs1

Response line:
1. 6.6
2. 2
3. 5.6
4. 1.4
5. 42.4
6. 20.6
